Please consider the recorded pIC50 for human thrombin (Homo sapiens) in what follows.
pIC50: −log10 of the molar value.

N=C(N)c1ccc(CNC(=O)Cn2c(=O)c(NCCc3ccccc3)cc3ccccc32)cc1    4.96

# batch size: 6; output pIC50 per entry
1. CN(C)CCCCCCNC(=O)Cn1c(=O)c(NS(=O)(=O)Cc2ccccc2)cc2ccccc21
2. N=C(N)c1ccc(CNC(=O)Cn2c(=O)c(NS(=O)(=O)Cc3ccccc3)cc3ccccc32)cc1
3. CN1CCC(CCCNC(=O)Cn2c(=O)c(NS(=O)(=O)Cc3ccccc3)cc3ccccc32)CC1
4. O=C(Cn1c(=O)c(NS(=O)(=O)Cc2ccccc2)cc2ccccc21)NCCCn1ccnc1
5. NCc1cccc(CNC(=O)Cn2c(=O)c(NS(=O)(=O)Cc3ccccc3)cc3ccccc32)c1
6. O=C(Cn1c(=O)c(NS(=O)(=O)Cc2ccccc2)cc2ccccc21)NCCc1cccnc1

< 4.52
5.26
< 4.52
< 4.52
< 4.52
< 4.52

# batch size: 2; output pIC50 per entry
1. NCc1ccc(CNC(=O)Cn2c(=O)c(NS(=O)(=O)Cc3ccccc3)cc3ccccc32)cc1
2. O=C(Cn1c(=O)c(NS(=O)(=O)Cc2ccccc2)cc2ccccc21)NCCc1cnc[nH]1

< 4.52
< 4.52
